The measurements presented in this section are drawn from ChEMBL document CHEMBL3991601.

- assay-system: Dual specificity mitogen-activated protein kinase kinase 6 (Homo sapiens, UniProt P52564); further: in the data inactive means no Kd found up to 30 µM
- Sequence (P52564 whole entry): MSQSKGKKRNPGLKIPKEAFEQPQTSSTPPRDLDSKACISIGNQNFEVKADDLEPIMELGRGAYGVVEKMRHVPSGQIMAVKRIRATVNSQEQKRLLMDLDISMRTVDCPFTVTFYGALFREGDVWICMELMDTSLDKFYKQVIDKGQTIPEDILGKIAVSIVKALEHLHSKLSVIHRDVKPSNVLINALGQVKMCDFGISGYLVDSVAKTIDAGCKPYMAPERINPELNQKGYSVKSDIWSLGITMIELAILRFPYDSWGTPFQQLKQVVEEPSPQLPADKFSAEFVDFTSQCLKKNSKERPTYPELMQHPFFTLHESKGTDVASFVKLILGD
Calls of active or inactive are those of the source.
Choose one outcome from this list and give only that: active, inactive

Outcome logged for `CC(=O)c1cnc2ccc(-c3cc(Cl)c(O)c(Cl)c3)nc2c1N[C@H]1CC[C@H](CN(C)C)CC1` in this assay:
active

Which outcome was entered for the molecule `Cc1cc(C(=O)NOCCO)c(Nc2ccc(I)cc2F)n(C)c1=O` in this test?
inactive

What was the test verdict on `CCS(=O)(=O)c1cccc(-c2cc(C(=O)NC3CCN(C)CC3)c(C)c3[nH]c4ncc(C)cc4c23)c1` ?
inactive

----------
- assay-system: Mitogen-activated protein kinase kinase kinase kinase 4 (Homo sapiens); further: in the data inactive means no Kd found up to 30 µM
- Sequence (O95819 whole entry): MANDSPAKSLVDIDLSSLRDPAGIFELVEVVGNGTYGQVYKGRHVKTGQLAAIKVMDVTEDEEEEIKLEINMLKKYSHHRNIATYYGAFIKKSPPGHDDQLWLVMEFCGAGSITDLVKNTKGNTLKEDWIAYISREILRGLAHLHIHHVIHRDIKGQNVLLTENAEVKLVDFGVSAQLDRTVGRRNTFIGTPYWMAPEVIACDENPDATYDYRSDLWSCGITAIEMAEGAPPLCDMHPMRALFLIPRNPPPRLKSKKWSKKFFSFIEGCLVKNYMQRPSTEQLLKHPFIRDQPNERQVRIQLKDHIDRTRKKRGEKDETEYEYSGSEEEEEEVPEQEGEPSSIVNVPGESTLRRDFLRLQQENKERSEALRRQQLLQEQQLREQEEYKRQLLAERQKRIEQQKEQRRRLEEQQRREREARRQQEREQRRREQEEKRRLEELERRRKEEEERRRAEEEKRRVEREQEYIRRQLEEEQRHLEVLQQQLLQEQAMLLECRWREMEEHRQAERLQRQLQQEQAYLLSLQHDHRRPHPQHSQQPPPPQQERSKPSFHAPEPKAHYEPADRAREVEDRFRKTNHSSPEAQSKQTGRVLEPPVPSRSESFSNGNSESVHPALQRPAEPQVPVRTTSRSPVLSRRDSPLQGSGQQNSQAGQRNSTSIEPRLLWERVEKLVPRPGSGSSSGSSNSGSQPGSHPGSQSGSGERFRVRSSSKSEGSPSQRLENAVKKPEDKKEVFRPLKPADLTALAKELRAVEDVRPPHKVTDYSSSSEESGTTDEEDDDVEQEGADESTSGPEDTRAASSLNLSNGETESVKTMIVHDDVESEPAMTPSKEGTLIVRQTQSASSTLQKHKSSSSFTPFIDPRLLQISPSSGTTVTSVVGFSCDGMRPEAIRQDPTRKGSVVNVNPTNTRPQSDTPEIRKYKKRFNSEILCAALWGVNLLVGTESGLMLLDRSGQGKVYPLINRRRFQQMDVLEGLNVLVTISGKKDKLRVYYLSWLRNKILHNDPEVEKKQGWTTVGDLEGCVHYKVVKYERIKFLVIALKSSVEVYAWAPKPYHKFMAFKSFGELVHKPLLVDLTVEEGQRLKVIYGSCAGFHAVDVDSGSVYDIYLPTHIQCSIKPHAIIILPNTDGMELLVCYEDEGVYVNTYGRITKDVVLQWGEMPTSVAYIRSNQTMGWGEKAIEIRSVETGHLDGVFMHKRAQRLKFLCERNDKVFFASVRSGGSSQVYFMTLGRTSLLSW
Activity calls are given as the source filed them.
Parameter call: string, one of active, inactive

INSERT INTO measurements (smiles_data, label_class) VALUES
  ('C=CC(=O)N1CCC[C@H](n2c(=O)n(-c3ccc(Oc4ccccc4)cc3)c3c(N)ncnc32)C1', 'inactive'),
  ('C[C@@H](NC(=O)c1ncnc(N)c1Cl)c1ncc(C(=O)Nc2cc(C(F)(F)F)c(Cl)cn2)s1', 'inactive'),
  ('O=C(Cc1ccc(-c2ccc(OCCN3CCOCC3)cc2)cn1)NCc1ccccc1', 'inactive');

Recorded test outcome, item `COCc1c(-c2ccc(NC(=O)Nc3cc(C(F)(F)F)ccc3F)c(F)c2)c2c(N)ncnn2c1CN1CCOCC1`
inactive

Field: outcome | Entry: `NC1(c2ccc(-c3nc4ccn5c(=O)[nH]nc5c4cc3-c3ccccc3)cc2)CCC1`
inactive

Which outcome was assigned to `CN1CCN(CCOc2cc(OC3CCOCC3)c3c(Nc4c(Cl)ccc5c4OCO5)ncnc3c2)CC1` in this test?
active

GET /call?item= `Nc1ncnc2c1c(-c1cccc(OCc3ccccc3)c1)cn2[C@H]1C[C@@H](CN2CCC2)C1` returns the recorded outcome of this test.
inactive

Answer briefly: the call reported for `CNC(=O)c1cccc2cc(Oc3ccnc4cc(OCC5(N)CC5)c(OC)cc34)ccc12` in this assay.
inactive

----------
- assay-system: LIM domain kinase 2 (Homo sapiens, UniProt P53671); further: in the data inactive means no Kd found up to 30 µM
- Sequence (P53671 whole entry, the tested form may be a part): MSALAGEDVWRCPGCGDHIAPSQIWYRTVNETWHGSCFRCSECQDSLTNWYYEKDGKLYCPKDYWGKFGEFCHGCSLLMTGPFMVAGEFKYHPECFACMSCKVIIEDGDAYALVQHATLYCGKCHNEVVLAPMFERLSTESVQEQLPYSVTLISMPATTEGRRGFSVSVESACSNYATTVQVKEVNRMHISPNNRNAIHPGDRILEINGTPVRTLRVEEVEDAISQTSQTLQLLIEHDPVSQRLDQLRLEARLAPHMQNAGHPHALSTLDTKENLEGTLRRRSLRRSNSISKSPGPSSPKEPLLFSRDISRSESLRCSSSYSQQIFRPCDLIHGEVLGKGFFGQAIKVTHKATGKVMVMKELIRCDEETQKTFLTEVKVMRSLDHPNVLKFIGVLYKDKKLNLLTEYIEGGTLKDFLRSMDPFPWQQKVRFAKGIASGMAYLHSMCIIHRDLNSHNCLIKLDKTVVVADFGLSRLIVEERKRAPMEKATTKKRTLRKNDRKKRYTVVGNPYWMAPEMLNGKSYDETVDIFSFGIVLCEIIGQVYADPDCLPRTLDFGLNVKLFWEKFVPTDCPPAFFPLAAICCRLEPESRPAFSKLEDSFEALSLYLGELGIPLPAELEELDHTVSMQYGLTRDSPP
Activity calls are given as the source filed them.
Give your call using only these classes: active, inactive

INSERT INTO measurements (compound, label_class) VALUES
  ('C[C@@H](N)c1ccc(C(=O)Nc2ccnc3[nH]ccc23)cc1', 'inactive'),
  ('CNC(=O)c1nn(C)c2c1C(C)(C)Cc1cnc(Nc3ccc(N4CCN(C)CC4)cc3)nc1-2', 'inactive'),
  ('NC(=O)c1c(OCc2c(F)cc(Br)cc2F)nsc1NC(=O)NCCCCN1CCCC1', 'inactive'),
  ('CNC(=O)c1cc(Oc2ccc(NC(=O)Nc3cc(C(C)(C)C)nn3-c3ccc4ncccc4c3)c(F)c2)ccn1', 'active'),
  ('COc1c(OCCCN2CCOCC2)ccc2c1N=C(NC(=O)c1cnc(N)nc1)N1CCN=C21', 'inactive'),
  ('C[C@@H](NC(=O)c1ncnc(N)c1Cl)c1ncc(C(=O)Nc2cc(C(F)(F)F)c(Cl)cn2)s1', 'inactive'),
  ('Cc1nc(Nc2n[nH]c3c2CN(C(=O)N[C@H](CN(C)C)c2ccccc2)C3(C)C)c2sccc2n1', 'inactive'),
  ('CC(C)c1cc(CNc2nc(Nc3cc(C4CC4)[nH]n3)cc(N3CCN(C)CC3)n2)on1', 'inactive');

// param item: `CCCCCCCCCCCCCCCCCCOP(=O)([O-])OC1CC[N+](C)(C)CC1` ; yields the recorded call
inactive

Field: outcome | Entry: `CCNC(=O)C#Cc1ccc2c(c1)NC(=O)/C2=C(\Nc1ccc(CN(C)C)cc1)c1ccccc1`
inactive

Look up the recorded call for `O=C(Cc1ccc(-c2ccc(OCCN3CCOCC3)cc2)cn1)NCc1ccccc1` in this test.
inactive

What is the recorded call for this compound in the test? `COc1ccc(S(=O)(=O)N(C(C)=O)c2ccccc2/C=C/c2cc[n+]([O-])cc2)cc1`
inactive

Dear colleague, could you share the recorded outcome for C=CC(=O)Nc1cc2c(Nc3ccc(F)c(Cl)c3)ncnc2cc1C#CC(C)(C)N1CCN(C)CC1 [AV-412 FREE BASE] when you have a moment?
inactive

Could you kindly confirm the outcome this assay logged for `CC(C)(C)c1nc(-c2cccc(NS(=O)(=O)c3c(F)cccc3F)c2F)c(-c2ccnc(N)n2)s1` ?
active

Recorded call for `CCOc1cc2ncc(C#N)c(Nc3ccc(F)c(Cl)c3)c2cc1NC(=O)/C=C/CN(C)C` ?
inactive

Write down the call the test reported for this compound. Item: `COCC(=O)NC/C=C/c1ccc2ncnc(Nc3ccc(Oc4ccc(C)nc4)c(C)c3)c2c1`
inactive

Identify the outcome logged in this assay for the compound shown: `Cc1cc(C(=O)NOCCO)c(Nc2ccc(I)cc2F)n(C)c1=O`
inactive
